FYI, the data here is from patent US11648239B2.

target.or.system: ERG protein (Homo sapiens, UniProt P11308)
Construct: host or cells: VCaP
Sequence (P11308 33-479 limits assumed): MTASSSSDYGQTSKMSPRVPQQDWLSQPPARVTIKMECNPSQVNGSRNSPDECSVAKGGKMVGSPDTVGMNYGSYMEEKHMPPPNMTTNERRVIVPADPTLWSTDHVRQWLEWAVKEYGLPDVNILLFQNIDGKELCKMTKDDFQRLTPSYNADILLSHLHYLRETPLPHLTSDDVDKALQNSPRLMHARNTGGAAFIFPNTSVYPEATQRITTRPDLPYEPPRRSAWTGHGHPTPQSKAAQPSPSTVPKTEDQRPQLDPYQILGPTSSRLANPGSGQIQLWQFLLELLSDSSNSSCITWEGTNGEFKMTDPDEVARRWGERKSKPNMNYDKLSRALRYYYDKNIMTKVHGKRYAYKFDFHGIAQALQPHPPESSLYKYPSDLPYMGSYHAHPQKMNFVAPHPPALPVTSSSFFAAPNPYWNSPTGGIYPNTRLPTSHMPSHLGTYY
method: Inhibition of ERG protein in VCaP cells (Western blot)
Format: cell-based
test.settings: VCaP, metastatic prostate cancer, TMPRSS2-ERG fusion; N/D = assay performed, inhibition not detected at the tested levels
Hi! Just check whether IC50 is below 600 nM. Below gives y, equal or above gives n.

>>> assigned_class("Cc1cc(N=Nc2nccs2)c(O)cc1O [Compound 3]")
"n"
>>> assigned_class("CN(C)c1ccc(N=Nc2ccc(Br)cn2)c(O)c1 [Compound 7]")
"y"
>>> assigned_class("Cc1cc(O)cc(O)c1N=Nc1nccs1 [Compound 4]")
"n"
>>> assigned_class("CN(C)c1ccc(N=Nc2ccccn2)c(O)c1 [Compound 6]")
"y"
>>> assigned_class("Oc1ccc(N=Nc2ccccn2)c(O)c1 [Compound 5]")
"y"
